- assay setup: Ebola virus entry assay, ratio channel
Calls of active or inactive are those of the source. No rule for the calls is given here.
Give your call using only these classes: label 1 = active, label 0 = inactive

Consider the worked cases shown below.
molecule | assigned class
Cn1ccc2cc3c(cc21)CCN3C(=O)Nc1cccnc1 | label 0
Nc1ccn([C@@H]2O[C@H](CO)[C@@H](O)C2(F)F)c(=O)n1 | label 0
CCCCc1nc(Cl)c(CO)n1Cc1ccc(-c2ccccc2-c2nn[nH]n2)cc1 | label 0
Cc1ccc(C(=O)c2cc(O)c(O)c([N+](=O)[O-])c2)cc1 | label 0
Cc1ncc(CNC(=O)N(CCCl)N=O)c(N)n1 | label 0

**Q:** How was `Cc1ccc(NC(=O)c2ccc(CN3CCN(C)CC3)cc2)cc1Nc1nccc(-c2cccnc2)n1` classified in this test?
**A:** label 1

**Q:** Kindly provide the recorded test outcome for the following molecule: `CC1=NS(=O)(=O)c2cc(Cl)ccc2N1`
**A:** label 0

**Q:** What was the test verdict on `CC/C=C(\C(=O)N[C@@H]1C(=O)N2C(C(=O)OCOC(=O)C(C)(C)C)=C(COC(N)=O)CS[C@H]12)c1csc(N)n1` ?
**A:** label 0

**Q:** Just curious, what result did `COc1cc(C(C)=O)ccc1OCCCN1CCC(c2noc3cc(F)ccc23)CC1` get here?
**A:** label 1

**Q:** Recorded test call requested for CCC(=O)C(CC(C)N(C)C)(c1ccccc1)c1ccccc1 (stereo not given)
**A:** label 1

Values from PubChem BioAssay (NCATS)
